Target: T1, CD134 expressed on the cell surface of HT1080_OX40 cells (human, UniProt P43489 29-277); also: test concentration or dose not given here
T1 sequence (looked up): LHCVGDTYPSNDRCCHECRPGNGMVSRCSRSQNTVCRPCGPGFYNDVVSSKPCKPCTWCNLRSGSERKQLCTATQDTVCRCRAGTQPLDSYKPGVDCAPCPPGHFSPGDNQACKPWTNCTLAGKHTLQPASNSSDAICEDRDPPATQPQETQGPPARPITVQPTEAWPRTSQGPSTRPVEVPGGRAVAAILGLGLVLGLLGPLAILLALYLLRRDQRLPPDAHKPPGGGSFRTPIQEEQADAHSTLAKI
Assay: cell-based or functional assay
Readout: Functional assay IL-8 (abs. corr.)

P018.S.04.A.A06 (antibody, V domains shown, V regions on human Ig constant parts; also called AB134_5) VH: QSLEESGGRLVTPGTPLTLTCTVSGFSLHNYNIQWVRQAPGKGLEWIGWILTDGSPYCANWAKGRFTISKTSTTVDLKITSPTIEDTATYFCARMGDYNINGLWGPGTLVTVSS VL: AQVLTQTPSSVSAAVGGTVTINCQSSQRIYNNDFLSWYQQKPGQPPKLLIYAASTLASGVPSRFKGSGSGTQFTLTISDLESDDAATYYCQGGYSSSGWYLPFGGGTEVVVK :: 0.879
P018.S.11.A.D04 (antibody, V domains shown, V regions on human Ig constant parts; also called AB134_31) VH: QSVEESGGRLVTPGTPLTLTCTVSGFSLNSYDMSWVRQAPGKGLEWIGFISASGSIYFASWAKGRFTISKTSTTVDLKITSPTTEDTATYFCASDSYGWAYVYYFNLWGPGTLVTVSS VL: AVVLTQTPASVSPAVGGTVTINCRASEDIGSYLGWYQQKPGQPPKLLMHDASDLASGVPSRFSGSGSGTEFTLTISGVQSDDAATYYCQSAWYSSNTDKMAFGGGTEVVVK :: 0.38
P018.S.12.A.F06 (antibody, V domains shown, V regions on human Ig constant parts; also called AB134_82) VH: QSLEESGGDLVKPGGTLTLTCKASGIDFNNYYVCWVRQAPGKGLEWVGCIYTGSGSTYYASWAKGRFTITRSSSTTVTLQMTSLTAADTATYFCARPEFYDTYGYAGYGYATPNYFNFWGPGTLVTVSS VL: AAVLTQTPSPVSAAVGGTVTIKCQASQSVYNNNLLSWYQQKPGQPPKLLMYDASNLASGVPDRFSGSGSGTQFTLTISDLESDDAATYYCLGGYDDDADYNAFGGGTEVVVA :: 0.374
P018.S.04.A.H05 (antibody, V domains shown, V regions on human Ig constant parts; also called AB134_15) VH: QSVEESGGRLVTPGTPLTLTCTVSGFSLSSYAMGWVRQAPGKGLEWIGWINTAGGTDYTSWAKGRFTISKTSTTVDLKVTSLTTEDTATYFCARYDYYYFDLWGQGTLVTVSS VL: AQVLTQTASSVSAAVGGTVTISCQSSQSVYDNNWLAWYQQKPGQPPKLLIYSASTLASGVPSRFKGSGSGTEFTLTISDLESDDAAAYYCHGVYSGSIHAFGGGTEVVVI :: 0.356
P018.S.12.A.F04 (antibody, V domains shown, V regions on human Ig constant parts; also called AB134_80) VH: QQQLEESGGGLVKPGGTLTLTCTASGIDFSSYWMWWVRQPPGKGLEWVACIYNGDGSTYYASWAKGRFTISKTSSTTVTLQMTSLTAADTATYFCARDFHLWGPGTLVTVSS VL: AQVLTQTASPVSAAVGSTVTINCQASQNIYKNNYLSWYQQKPGQPPKGLIYSASTLDSGVPLRFSGSGSGTKFTLTISDVQSDDAATYYCLGSVACSGPDCIVFGGGTEVVVK :: 0.289
P018.S.05.A.F05 (as anti-CD134 antibody) (antibody, V domains shown, V regions on human Ig constant parts; also called AB134_16) VH: QSVEESGGRLVTPGTPLTLTCTVSGFSLSNYYMTWVRQAPGKGLEYIGIIGSGVSTYYANWAKGRFTISKASSTTVDLKMTSPTTEDTATYFCARDMYVGNWGDWGLWGQGTLVTVSS VL: AYDMTQTPASVEVAVGGTVTIKCQASQSISNNLNWYQQKPGQPPKLLIYSVSTLASGVPSRFKGSGSGTDYTLTISGVESVDAATYYCQQDYRIGDLDSAFGGGTEVVVK :: 0.187
P018.S.12.A.A01 (antibody, V domains shown, V regions on human Ig constant parts; also called AB134_50) VH: QSVEESGGRLVTPGTPLTLTCTVSGFSLSSYAMIWVRQAPGKGLEYIGYISYDGSTYYASWVKGRFTISKTSTTVDLKMTSLTTEDTATYFCARARIDDGYGNLWGQGTLVTVSS VL: DVVMTQTPASVSEPVGGTVTIKCQASESISNYLAWYQQKPGQPPKLLIYAASYLASGVPSRFRGSGSGTEFTLTISDLESADAATYYCQCTYVASTYVGTFGGGTEVVVK :: 0.071
P018.S.03.A.E03 (antibody, V domains shown, V regions on human Ig constant parts; also called AB134_4) VH: QSVEESGGRLVTPGTPLTLTCTVSGFSLSTYGMSWVRQAPGKGLEWIGIIDAGDSPYYASWVKGRFTISKTSTTVDLKITSLTTEDTATYFCARIAGSNHGPFSLWGPGTLVTVSS VL: DVVMTQTPASVSEPVGGTVTINCQASEFISNYLAWYQQKPGQPPKLLIYGASTLASGVPSRFSGSGSGTQFTLTISDLESDDAATYYCQCTAYGSGYVGFGGGTEVVVK :: 0.314
P018.S.04.A.E01 (antibody, V domains shown, V regions on human Ig constant parts; also called AB134_10) VH: QSVEESGGRLVTPGTPLTLTCTASGFSLSSSWMSWVRQAPGKGLEFIGFINTGGRAFYATWASGRFTISRTSTKVDLEITSPTSEDTATYFCVRGAAGYPEYDDGDLWGQGTLVTVSS VL: AQVLTQTLSPVSAAVGGTVTINCQSSPSVYHNNWLSWFQKKPGQPPKLLIYEASKLASGVPPRFSGSGSGTQFTLTISGVQSDDAATYYCAGSFSDNIYTFGGGTAMVVK :: 0.084
P018.S.12.A.C02 (antibody, V domains shown, V regions on human Ig constant parts; also called AB134_62) VH: QEQLVESGGGLVQPEGSLTLTCTASGFSFSNNAMCWVRQAPGKGLEWIACIYDGSSGSTYYATWAKGRFTISKTSSTTVTLQMTSLTAADTATYFCARAYGGYTVYDYAFNLWGPGTLVTVSS VL: DVVMTQTPASVSEPVGGTVTIKCQASQSIGSDLAWYQQKPGQPPKLLIYYTTNLETGVSSRFKGSRSGTEYALTISDLESADAATYYCQYGVRSTYSFGGGTEVVVK :: 0.936
